// values below are reported Kd
experimental_system: T1, mature human TGF-β3 (human, UniProt P10600 301-412)
T1 construct: Bought protein (RDI, Cat # RDI-1036/CF); also called TGF-b3
T1 sequence: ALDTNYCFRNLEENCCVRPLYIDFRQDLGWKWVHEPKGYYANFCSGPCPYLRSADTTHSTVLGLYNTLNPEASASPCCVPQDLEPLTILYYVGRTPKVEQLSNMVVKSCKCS
method: BIAcore 2000 SPR, antibody captured on Protein A, TGF-β injected
A number alone suffices; assume pM.

For orientation, consider the following solved cases.
# binder, Kd / pM
measured = [
    ("mAb 4.17 (antibody, human IgG4 S228P, kappa, V domains shown, Full-length monoclonal antibody, made by linking the Fab to an IgG4 Fc region) VH: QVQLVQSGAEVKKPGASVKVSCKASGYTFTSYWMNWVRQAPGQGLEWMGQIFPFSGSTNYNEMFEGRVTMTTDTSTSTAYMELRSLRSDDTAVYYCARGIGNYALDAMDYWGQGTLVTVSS VL: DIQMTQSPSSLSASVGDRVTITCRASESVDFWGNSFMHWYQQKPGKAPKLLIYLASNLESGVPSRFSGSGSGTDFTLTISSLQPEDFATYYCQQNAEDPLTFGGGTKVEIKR", 1.53),
    ("mAb 3.A (antibody, human IgG4 S228P, kappa, V domains shown, Full-length monoclonal antibody, made by linking the Fab to an IgG4 Fc region) VH: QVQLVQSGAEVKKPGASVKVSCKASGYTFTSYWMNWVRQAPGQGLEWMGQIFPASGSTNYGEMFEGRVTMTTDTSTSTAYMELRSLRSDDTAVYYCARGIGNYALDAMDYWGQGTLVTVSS VL: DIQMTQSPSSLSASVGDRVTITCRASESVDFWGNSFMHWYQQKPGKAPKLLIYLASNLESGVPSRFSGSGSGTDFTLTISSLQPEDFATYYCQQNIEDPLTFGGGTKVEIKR", 0.926),
    ("mAb 12.7 (antibody, human IgG4 S228P, kappa, V domains shown, Full-length monoclonal antibody, made by linking the Fab to an IgG4 Fc region) VH: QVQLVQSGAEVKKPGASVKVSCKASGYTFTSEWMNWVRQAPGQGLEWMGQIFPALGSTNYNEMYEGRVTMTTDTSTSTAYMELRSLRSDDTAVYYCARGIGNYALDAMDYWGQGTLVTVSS VL: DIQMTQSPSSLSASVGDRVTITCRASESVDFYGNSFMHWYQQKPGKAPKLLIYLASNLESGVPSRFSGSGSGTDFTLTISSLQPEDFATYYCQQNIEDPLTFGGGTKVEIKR", 0.82),
]

Ask | Kd lookup needed for mAb 12.8 (antibody, human IgG4 S228P, kappa, V domains shown, Full-length monoclonal antibody, made by linking the Fab to an IgG4 Fc region) VH: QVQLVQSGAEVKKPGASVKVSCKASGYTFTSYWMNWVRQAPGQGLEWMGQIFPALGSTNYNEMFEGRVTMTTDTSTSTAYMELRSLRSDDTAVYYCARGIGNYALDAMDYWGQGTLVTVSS VL: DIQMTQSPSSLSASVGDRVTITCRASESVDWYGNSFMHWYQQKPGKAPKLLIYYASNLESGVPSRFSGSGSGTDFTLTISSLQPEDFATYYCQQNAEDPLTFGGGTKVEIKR , thanks.
Reply | 0.54

Ask | Look up Kd: mAb 12.4 (antibody, human IgG4 S228P, kappa, V domains shown, Full-length monoclonal antibody, made by linking the Fab to an IgG4 Fc region) VH: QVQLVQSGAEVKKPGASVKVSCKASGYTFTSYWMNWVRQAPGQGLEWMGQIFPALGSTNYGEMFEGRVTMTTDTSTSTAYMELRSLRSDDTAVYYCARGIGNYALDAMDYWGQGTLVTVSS VL: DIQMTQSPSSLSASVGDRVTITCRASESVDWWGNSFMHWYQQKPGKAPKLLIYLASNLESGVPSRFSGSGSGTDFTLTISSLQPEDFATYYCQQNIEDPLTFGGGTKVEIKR
Reply | 0.851
